Listing of recorded inhibition at 100 µM by entry.
tested on: IICR (IP3 induced calcium release) in CHO cells; assay: Assay of IICR (IP3 induced calcium release)-inhibiting action; type: cell-based, Chinese hamster; conditions: Cricetulus griseus, CHO, test compound 100 μmol; CHO cells, 10 μM ATP; read-out: IICR level (percentage of inhibition)
Expressed in %, but write only the number.

> print(dat)
                                   compound    measured.parameter  recorded.measurement
1  O=C(CCN(CCO)c1ccccc1)c1ccncc1 [Example 134]  inhibition at 100 µM                    30

Which inhibition at 100 µM is reported for this compound? CC(C)N(CCO)CCC(=O)c1ccc(Cl)s1 [Example 267]
70

Which inhibition at 100 µM is reported for this compound? O=C(CCN(CCO)Cc1ccccc1)c1ccccn1 [Example 96]
100

Which inhibition at 100 µM is reported for this compound? O=C(CCNC(c1ccccc1)C(O)c1ccccc1)c1ccco1 (centres unmarked) [Example 272]
20

Which inhibition at 100 µM is reported for this compound? CN(CCO)CCC(=O)c1cccnc1 [Example 259]
20

Which inhibition at 100 µM is reported for this compound? O=C(CCNCC(O)c1ccccc1)c1ccc(Oc2ccccc2)cc1 (centres unmarked) [Example 87]
90

Which inhibition at 100 µM is reported for this compound? O=C(CCNC12CC3CC(CC(C3)C1)C2)c1ccccc1 [Example 189, 2-N-adamantaneaminoethylphenylketone]
0

Which inhibition at 100 µM is reported for this compound? CC(CN(Cc1ccccc1)C(C)C)C(=O)c1ccccc1F (centres unmarked) [Example 182]
50

Which inhibition at 100 µM is reported for this compound? CC(C)N(CCC(=O)c1cccnc1)Cc1ccccc1 [Example 106]
100

* * *

system: IICR (IP3 induced calcium release) in CHO cells; assay: Assay of IICR (IP3 induced calcium release)-inhibiting action; assay type: cell-based, Chinese hamster; settings: Cricetulus griseus, CHO, test compound 30 μmol; CHO cells, 10 μM ATP; read-out: IICR level (percentage of inhibition)
Binary call on inhibition at 30 µM: Satisfied from 20% upward, Not satisfied beneath that.

Worked examples, 2 molecules total:
> print(dat)
                                   molecule        cat
1  COC(=O)C(CSSCC(NCCC(=O)c1ccc2c(c1)Cc1ccccc1-2)C(=O)OC)NCCC(=O)c1ccc2c(c1)Cc1ccccc1-2 (stereo not drawn)  Satisfied
2       CC(C)(C)N(CCC(=O)c1cccnc1)Cc1ccccc1  Satisfied

Identify whether the reported inhibition at 30 µM of the following molecule is 20% or greater: CC(=O)CCN(Cc1ccccc1)C(C)C
Not satisfied

Identify whether the reported inhibition at 30 µM of the following molecule is 20% or greater: CCc1nccnc1C(=O)CCN(CCO)CCO
Not satisfied

Identify whether the reported inhibition at 30 µM of the following molecule is 20% or greater: CC(C)N(CCO)CCC(=O)N1CCCCCC1=O
Not satisfied

Identify whether the reported inhibition at 30 µM of the following molecule is 20% or greater: CCCCN(CCO)CCC(=O)c1cnccn1
Not satisfied

Identify whether the reported inhibition at 30 µM of the following molecule is 20% or greater: CC(C)N(CCC(=O)c1ccc(Cc2ccccc2)cc1)Cc1ccccc1
Satisfied

Identify whether the reported inhibition at 30 µM of the following molecule is 20% or greater: C=CCC(=O)c1cccc2ccccc12
Satisfied

* * *

Listing of recorded inhibition at 10 µM by entry.
tested on: IICR (IP3 induced calcium release) in CHO cells; test: Assay of IICR (IP3 induced calcium release)-inhibiting action; assay type: cell-based, Chinese hamster; conditions: Cricetulus griseus, CHO, test compound 10 μmol; CHO cells, 10 μM ATP; read-out: IICR level (percentage of inhibition)
Expressed in %, but write only the number.

See these solved cases before continuing.
> print(dat)
                                   compound   measured.parameter  unit.tag  recorded.measurement
1      CN(CCO)CCC(=O)c1cnccn1 [Example 208]  inhibition at 10 µM         %                    20
2  O=C(CCN(Cc1ccccc1)Cc1ccccc1)c1ccc(Br)s1 [Example 325]  inhibition at 10 µM         %                    20

Which inhibition at 10 µM is reported for this compound? CCCCN(CCO)CCC(=O)c1cccs1 [Example 247]
10

Which inhibition at 10 µM is reported for this compound? COc1ccc(C(=O)CCN(C)Cc2ccccc2)cc1 [Example 76]
0

Which inhibition at 10 µM is reported for this compound? CC(C)N(CC(=O)c1ccc(F)cc1)Cc1ccccc1 [Example 196]
0

Which inhibition at 10 µM is reported for this compound? CCN(CCC(=O)c1ccncc1)Cc1ccccc1 [Example 209]
20

Which inhibition at 10 µM is reported for this compound? CC(C)N(CCC(=O)c1ccccn1)Cc1ccccc1 [Example 73]
70

Which inhibition at 10 µM is reported for this compound? CC(C)N(CCC(=O)c1ccc(Cl)cc1)Cc1ccccc1 [Example 310]
80

Which inhibition at 10 µM is reported for this compound? O=C(CCNCCSSCCNCCC(=O)c1ccc(I)s1)c1ccc(I)s1 [Example 410]
59

Which inhibition at 10 µM is reported for this compound? CN(CCO)CCC(=O)c1nccs1 [Example 291]
40

Which inhibition at 10 µM is reported for this compound? COc1ccc(C(=O)CCN(Cc2ccccc2)C(C)C)cc1 [Example 72]
20

* * *

tested on: IICR (IP3 induced calcium release) in CHO cells; test: Assay of IICR (IP3 induced calcium release)-inhibiting action; assay type: cell-based, Chinese hamster; conditions: Cricetulus griseus, CHO, test compound 100 μmol; CHO cells, 10 μM ATP; read-out: IICR level (percentage of inhibition)
Measured Parameter: inhibition at 100 µM (%)
Expressed in %, but write only the number.

See these solved cases before continuing.
> print(dat)
                                   compound                             system.tested    measured.parameter  recorded.measurement
1  CC(C)(C)N(CCC(=O)c1ccc(Cl)cc1)Cc1ccccc1 [Example 305]  IICR (IP3 induced calcium release) in CHO cells  inhibition at 100 µM                    50
2  O=C(CCNCCc1ncc[nH]1)c1cccnc1 [Example 176]  IICR (IP3 induced calcium release) in CHO cells  inhibition at 100 µM                    50
3  CCC(CO)(CO)NCCC(=O)c1cccc2ccccc12 [Example 141]  IICR (IP3 induced calcium release) in CHO cells  inhibition at 100 µM                    20
4  CC(C)N(CCC(=O)c1ccncc1)Cc1ccccc1 [Example 107]  IICR (IP3 induced calcium release) in CHO cells  inhibition at 100 µM                    90
5  CCCCN(CCC(=O)c1ccc2ccccc2c1)Cc1ccccc1 [Example 378]  IICR (IP3 induced calcium release) in CHO cells  inhibition at 100 µM                    46

What is its inhibition at 100 µM for IICR (IP3 induced calcium release) in CHO cells? Entry: COc1ccc(C(=O)CCN(C)Cc2ccccc2)cc1 [Example 76]
30

What is its inhibition at 100 µM for IICR (IP3 induced calcium release) in CHO cells? Entry: O=C(CCN(CCO)Cc1ccccc1)c1ccco1 [Example 124]
70

What is its inhibition at 100 µM for IICR (IP3 induced calcium release) in CHO cells? Entry: Cc1cc(C(=O)CCN(Cc2ccccc2)C(C)C)oc1C [Example 225]
90

What is its inhibition at 100 µM for IICR (IP3 induced calcium release) in CHO cells? Entry: O=C(CCN(CCO)CCO)c1ccc2ccccc2c1 [Example 147]
90

What is its inhibition at 100 µM for IICR (IP3 induced calcium release) in CHO cells? Entry: CC(C)N(CCC(=O)c1ccc2c(Cl)cccc2c1)Cc1ccccc1 [Example 84]
100

What is its inhibition at 100 µM for IICR (IP3 induced calcium release) in CHO cells? Entry: CC(C)N(CCO)CC(=O)c1ccccc1 [Example 206]
40

What is its inhibition at 100 µM for IICR (IP3 induced calcium release) in CHO cells? Entry: CCN(CCC(=O)c1cccs1)Cc1ccccc1 [Example 253]
20

What is its inhibition at 100 µM for IICR (IP3 induced calcium release) in CHO cells? Entry: Cc1cc(C(=O)CCN(CCO)Cc2ccccc2)oc1C [Example 227]
20

What is its inhibition at 100 µM for IICR (IP3 induced calcium release) in CHO cells? Entry: CC(C)N(CCO)CCC(=O)c1cc2ccccc2s1 [Example 284]
40

What is its inhibition at 100 µM for IICR (IP3 induced calcium release) in CHO cells? Entry: CC(C)N(CCO)CCC(=O)c1ccc2ccccc2c1 [Example 205]
0

What is its inhibition at 100 µM for IICR (IP3 induced calcium release) in CHO cells? Entry: CN(CCC(=O)c1ccncc1)Cc1ccccc1 [Example 31]
80

What is its inhibition at 100 µM for IICR (IP3 induced calcium release) in CHO cells? Entry: CC(C)(C)N(CCO)CCC(=O)c1cccnc1 [Example 232]
10

What is its inhibition at 100 µM for IICR (IP3 induced calcium release) in CHO cells? Entry: CC(C)N(CCO)CCC(=O)c1ccc(Cl)cc1 [Example 311]
50

What is its inhibition at 100 µM for IICR (IP3 induced calcium release) in CHO cells? Entry: O=C(CCN(CCO)CCO)c1cccnc1 [Example 150]
50

What is its inhibition at 100 µM for IICR (IP3 induced calcium release) in CHO cells? Entry: CN(CCC(=O)c1nccs1)Cc1ccccc1 [Example 258]
20

What is its inhibition at 100 µM for IICR (IP3 induced calcium release) in CHO cells? Entry: CC(C)N(CCO)CCC(=O)c1cccs1 [Example 194]
0

FYI, the data here is from patent US8937091B2.
